protocol notes: Induction of anti-CD3 antibodies-stimulated human CD8+ T cell activation at 1.11 uM assessed fold increase in cell proliferation measured by flow cytometry analysis; also: reference of the scale not given here
Assay type: functional, T cell line
readout name: fold change (FC)

Sample answers from the record:
substance smiles: C[C@H](Cc1nncn1C)c1cccc(N2Cc3c(cc(CN4CC(O)C4)cc3C(F)(F)F)C2=O)c1
fold change (FC): <=2
//
substance smiles: C[C@H](Cc1nncn1C)c1cccc(N2Cc3c(cc(CN4CC[C@H](F)C4)cc3C(F)(F)F)C2=O)c1
fold change (FC): >4
//
substance smiles: Cn1cnnc1[C@@H]1C[C@@H]1c1cccc(N2Cc3c(cccc3C(F)(F)F)C2=O)c1
fold change (FC): <=2
//
substance smiles: Cn1cnnc1CC1(c2cccc(N3Cc4c(cc(CN5CCC6(CC6)C5)cc4C(F)(F)F)C3=O)c2)COC1
fold change (FC): >4

Noted for C[C@H](Cc1nncn1C)c1cccc(NC(=O)c2n[nH]c3c2CCC3)c1 : its fold change (FC) reads >4

---

Catalogue of compounds with associated AUC
System: B cell
protocol notes: Induction of anti-IgM-stimulated human CD20+ B cell activation at 10 to 1000 uM assessed as increase in CD69 expression measured as mean fluorescence intensity AUC by flow cytometry analysis
Format: functional, cell-based
measurement conditions: dose 10-1000 µM
Respond numerically, and do not add a unit to the figure.

substance smiles: Cc1cc(C(=O)Nc2cccc([C@@H](C)Cc3nncn3C)c2)nc(C2CC2)n1
AUC: 1.01

We next turn to a different compound, shown below.
Noted for C[C@H](Cc1nncn1C)c1cccc(N2Cc3c(ccnc3C3CC3)C2=O)c1 : its AUC reads 0.5

---

protocol notes: Induction of anti-CD3 antibodies-stimulated human CD4+ T cell activation in immunocompetent mouse assessed fold increase in CD25 expression at 135 mg/kg, po administered twice a day; also: reference of the scale not given here
Assay type: functional
Catalogue of molecules with associated fold change (FC)
Respond numerically, and do not add a unit to the figure.

substance smiles: C[C@H](c1cc2c(c(C(F)(F)F)c1)CN(c1cccc(C3(Cc4nncn4C)COC3)c1)C2=O)N1CC[C@H](F)C1
fold change (FC): 1

We next turn to a different molecule, shown below.
Noted for Cn1cnnc1CC1(c2cccc(N3Cc4c(cc(CN5CC6(CC6)C5)cc4C(F)(F)F)C3=O)c2)COC1 : its fold change (FC) reads 1.51

---

protocol notes: Induction of anti-CD3/CD28 antibodies-stimulated human T cell activation at 1 uM assessed fold increase in IL-2 secretion measured by ELISA assay
Type: functional, T cell line
readout name: fold change (FC)

molecule: CC(Cc1nncn1C)c1cc(C2CCC2)cc(N2Cc3c(cccc3C(F)(F)F)C2=O)c1 (stereo not drawn)
value observed: 1.01
//
molecule: CC(c1cc(C(=O)Nc2cccc(C3(Cc4nncn4C)COC3)c2)nc(C2CC2)n1)N1CCC2(CC2)C1 (single isomer, unassigned; 592a)
value observed: >=7.5
//
molecule: C[C@H](Cc1nncn1C)c1cccc(N2Cc3c(cc(CN4CC[C@@H](F)C4)cc3C(F)(F)F)C2=O)c1
value observed: >=7.5
//
molecule: C[C@H](Cc1nncn1C)c1cccc(NC(=O)c2cc(C(=O)N3CC(O)C(F)(F)C3)ccn2)c1 (stereo partly drawn)
value observed: <=1
//
molecule: C[C@H](Sc1nncn1C)c1cccc(NC(=O)c2cc(C(F)(F)F)ccn2)c1
value observed: 1.01

Noted for C[C@H](Cc1nncn1C)c1cccc(N2Cc3c(Br)cccc3C2=O)c1 : its fold change (FC) reads 5

Noted for C[C@H](Cc1nncn1C)c1cccc(N2Cc3c(cc(CN4CC(F)C4)cc3C(F)(F)F)C2=O)c1 : its fold change (FC) reads >=7.5

Noted for C[C@H](c1cc2c(c(C(F)(F)F)c1)CN(c1cccc(C3(Cc4nncn4C)COC3)c1)C2=O)N1CC[C@H](F)C1 : its fold change (FC) reads >=7.5

---

protocol notes: Induction of anti-CD3/CD28 antibodies-stimulated human T cell activation at 0.3 uM assessed fold increase in IL-2 secretion measured by ELISA assay
Type: functional, T cell line
Catalogue of compounds with associated fold change (FC)
Respond numerically, and do not add a unit to the figure.

compound: C[C@H](Cc1nncn1C)c1cccc(N2Cc3c(cc(C(=O)N4CC(O)C4)cc3C(F)(F)F)C2=O)c1
fold change (FC): 1.01
//
compound: CCOc1cc(NC(=O)c2cc(C)nc(C3CC3)n2)cc(C2(Cc3nncn3C)COC2)c1
fold change (FC): 2.51
//
compound: C[C@H](Cc1nncn1C)c1cc(OCC(F)F)nc(N2Cc3c(cccc3C(F)(F)F)C2=O)c1
fold change (FC): 2.51
//
compound: Cc1cc(C(=O)Nc2cccc(C3(C(F)(F)c4nncn4C)COC3)c2)nc(C2CC2)n1
fold change (FC): 2.51
//
compound: Cn1cnnc1CC1(c2cccc(N3Cc4c(cc(CN5CC[C@H](F)C5)nc4C4CC4)C3=O)c2)COC1
fold change (FC): 2.51

Noted for CC(Sc1nncn1C)c1cc(F)cc(N2Cc3c(cccc3C(F)(F)F)C2=O)c1 (centres undefined) : its fold change (FC) reads 1.01

Noted for CN(C)Cc1cc(C(=O)Nc2cccc(C3(Cc4nncn4C)COC3)c2)nc(C2CC2)n1 : its fold change (FC) reads 2.51

Noted for C[C@H](Cc1nncn1C)c1cccc(N2Cc3c(cc([C@@H](C)N4CC(O)C4)cc3C(F)(F)F)C2=O)c1 : its fold change (FC) reads 2.51

---

protocol notes: Induction of anti-CD3/CD28 antibodies-stimulated human anergic T cell activation at 1.11 uM assessed fold increase in IFN-gamma secretion measured by ELISA assay
Assay type: functional, T cell line
readout name: fold change (FC)

substance smiles: C[C@H](Cc1nncn1C)c1ccnc(NC(=O)c2cccc(C(F)(F)F)n2)c1
fold change (FC): <=2.5

substance smiles: C[C@H](Cc1nncn1C)c1cccc(NC(=O)c2cccc(CCO)n2)c1
fold change (FC): <=2.5

substance smiles: C[C@@H](Sc1nncn1C)c1cccc(NC(=O)c2cccc(C(F)(F)F)n2)c1
fold change (FC): <=2.5

substance smiles: Cn1cnnc1CC1(c2cccc(N3Cc4c(cc(CN5CC(F)C5)cc4C(F)(F)F)C3=O)c2)COC1
fold change (FC): 2.51

We next turn to a different compound, shown below.
Noted for C[C@@H](c1cc2c(c(C(F)(F)F)c1)CN(c1cccc(C3(Cc4nncn4C)COC3)c1)C2=O)N1CC[C@H](F)C1 : its fold change (FC) reads >4.01

---

protocol notes: Induction of anti-CD3/CD28 antibodies-stimulated human anergic T cell activation at 10 uM assessed fold increase in IFN-gamma secretion measured by ELISA assay
Type: functional, T cell line
readout name: fold change (FC)

Sample answers from the record:
substance smiles: C[C@@H](c1cc2c(c(C(F)(F)F)c1)CN(c1cccc(C3(Cc4nncn4C)COC3)c1)C2=O)N1CC[C@H](F)C1
value observed: >4.01
//
substance smiles: Cn1cnnc1C(F)(F)[C@](C)(F)c1cccc(N2Cc3c(cc(CN4CC[C@@H](C#N)C4)cc3C(F)(F)F)C2=O)c1
value observed: >4.01
//
substance smiles: C[C@H](Sc1nncn1C)c1cccc(NC(=O)c2cccc(C(F)(F)F)n2)c1
value observed: 2.51
//
substance smiles: Cn1cnnc1[C@@H]1C[C@@H]1c1cccc(N2Cc3c(cccc3C(F)(F)F)C2=O)c1
value observed: <=2.5
//
substance smiles: Cn1cnnc1CC1(c2cccc(NC(=O)c3nc4c(C(F)(F)F)cccc4[nH]3)c2)COC1
value observed: >4.01

Noted for C[C@H](Cc1nncn1C)c1cccc(N2Cc3c(cccc3C(F)(F)F)C2=O)c1.Cl : its fold change (FC) reads <=2.5

Noted for Cc1cc2c(c(C3CC3)n1)CN(c1cccc([C@H](C)Cc3nncn3C)c1)C2=O : its fold change (FC) reads 2.51

Noted for Cn1cnnc1[C@@H]1C[C@@H]1c1cccc(N2Cc3c(ccnc3C(F)(F)F)C2=O)c1 : its fold change (FC) reads 2.51

Noted for C[C@H](Cc1nncn1C)c1cccc(N2Cc3c(cc(CN4CC(C)(O)C4)cc3C(F)(F)F)C2=O)c1 : its fold change (FC) reads >4.01

Noted for C[C@H](Cc1nncn1C)c1cccc(NC(=O)c2cccc(CCO)n2)c1 : its fold change (FC) reads 2.51

Noted for Cn1cnnc1CC1(c2cccc(NC(=O)c3cc(CN4CCC5(CC5)C4)cc(C4CC4)n3)c2)COC1 : its fold change (FC) reads >4.01

---

protocol notes: Induction of anti-CD3 antibodies-stimulated human T cell activation at 1.11 uM assessed fold increase in GM-CSF secretion measured by ELISA assay; also: reference of the scale not given here
Type: functional, T cell line
readout name: fold change (FC)
Respond numerically, and do not add a unit to the figure.

Sample answers from the record:
substance smiles: Cn1cnnc1C(F)(F)[C@](C)(F)c1cccc(N2Cc3c(cc(CN4CC[C@@H](C#N)C4)cc3C(F)(F)F)C2=O)c1
readout name: fold change (FC)
value observed: 1.51
//
substance smiles: C[C@H](Cc1nncn1C)c1cccc(N2Cc3c(cc(CN4CC(C)(O)C4)cc3C(F)(F)F)C2=O)c1
readout name: fold change (FC)
value observed: 2.01
//
substance smiles: C[C@H](Cc1nncn1C)c1cccc(N2Cc3c(cc(CN4CC[C@H](F)C4)cc3C(F)(F)F)C2=O)c1
readout name: fold change (FC)
value observed: 2.01

Noted for Cc1cc(C(=O)Nc2cccc([C@H](C)Cc3nncn3C)c2)nc(C2CC2)n1 : its fold change (FC) reads 2.01

Noted for C[C@H](Cc1nncn1C)c1cccc(N2Cc3c(ccnc3C3CC3)C2=O)c1 : its fold change (FC) reads 1.51

Noted for Cc1n[nH]c(C)c1-c1cc2c(c(C(F)(F)F)c1)CN(c1cccc(C3(Cc4nncn4C)COC3)c1)C2=O : its fold change (FC) reads 1.51
